FYI, the data here is from patent US20210023029A1.

experiment: Edasalonexent dosing regimen pharmacokinetics in C57BL/6 mice (diet or oral gavage, LC/MS/MS); type: in vivo; settings: C57BL/6, mouse; plasma; group 3, oral TID 150 mg/kg/dose = 450 mg/kg/day; day 3
Readout: Tmax (min)
Report the figure in min without appending any unit label.

Please report the recorded Tmax for CC/C=C\C/C=C\C/C=C\C/C=C\C/C=C\C/C=C\CCC(=O)NCCNC(=O)c1ccccc1O [edasalonexent] .
30

* * *

experiment: Edasalonexent dosing regimen pharmacokinetics in C57BL/6 mice (diet or oral gavage, LC/MS/MS); type: in vivo; details: C57BL/6, mouse, po, 1.5 % in diet; plasma; 1.5% edasalonexent in diet (group 1); read-out: Cmax
Readout: Cmax (ng/mL)
Report the figure in ng/mL without appending any unit label.

Please report the recorded Cmax for CC/C=C\C/C=C\C/C=C\C/C=C\C/C=C\C/C=C\CCC(=O)NCCNC(=O)c1ccccc1O [edasalonexent] .
44.6

* * *

test: Edasalonexent dosing regimen pharmacokinetics in C57BL/6 mice (diet or oral gavage, LC/MS/MS); format: in vivo; conditions: C57BL/6, mouse, po, 1.5 % in diet; gastrocnemius; 1.5% edasalonexent in diet (group 1)
Readout: AUC
Returns: string containing the number followed by the unit.

Please report the recorded AUC for `CC/C=C\C/C=C\C/C=C\C/C=C\C/C=C\C/C=C\CCC(=O)NCCNC(=O)c1ccccc1O` .
7620 ng·h/mL

* * *

experiment: Edasalonexent dosing regimen pharmacokinetics in C57BL/6 mice (diet or oral gavage, LC/MS/MS); type: in vivo; settings: C57BL/6, mouse; plasma; group 2, oral QD 450 mg/kg/dose; read-out: AUC0-24 h, day 3 (±SE)
Readout: AUC(0-t)
Returns: string containing the number followed by the unit.

Please report the recorded AUC(0-t) for `CC/C=C\C/C=C\C/C=C\C/C=C\C/C=C\C/C=C\CCC(=O)NCCNC(=O)c1ccccc1O` .
1320 ng·h/mL

* * *

experiment: Edasalonexent dosing regimen pharmacokinetics in C57BL/6 mice (diet or oral gavage, LC/MS/MS); format: in vivo; conditions: C57BL/6, mouse; plasma; group 4, oral TID 150/150/300 mg/kg/dose = 600 mg/kg/day; day 3
Readout: Tmax
Returns: string containing the number followed by the unit.

Please report the recorded Tmax for `CC/C=C\C/C=C\C/C=C\C/C=C\C/C=C\C/C=C\CCC(=O)NCCNC(=O)c1ccccc1O` .
30 min

* * *

experiment: Edasalonexent dosing regimen pharmacokinetics in C57BL/6 mice (diet or oral gavage, LC/MS/MS); format: in vivo; settings: C57BL/6, mouse; plasma; group 2, oral QD 450 mg/kg/dose; day 3
Readout: Tmax (min)
Report the figure in min without appending any unit label.

Please report the recorded Tmax for CC/C=C\C/C=C\C/C=C\C/C=C\C/C=C\C/C=C\CCC(=O)NCCNC(=O)c1ccccc1O [edasalonexent] .
30
